Where do the numbers come from? From ChEMBL document CHEMBL1143246.

Entries and their log10 of IC95 values follow.
tested on: Human immunodeficiency virus 1; assay: Antiviral activity against HIV1 in human MT4 cell assessed as inhibition of virus spread in presence of 50% normal human serum; format: functional; settings: Human immunodeficiency virus 1, MT4; read-out: CIC95
Would you kindly interpret these values as log10 of IC95 expressed in nM?

Examples with answers:
>>> reported_result("CC(=O)N(C)C1CCCCn2c1nc(C(=O)NCc1ccc(F)cc1)c(O)c2=O (racemic)")
2.70
>>> reported_result("CN(C(=O)CS(=O)(=O)N(C)C)[C@H]1CCCn2c1nc(C(=O)NCc1ccc(F)cc1)c(O)c2=O")
1.49
>>> reported_result("CN(C)C(=O)C(=O)N(C)[C@@H]1CCCCn2c1nc(C(=O)NCc1ccc(F)cc1)c(O)c2=O")
1.62
>>> reported_result("CS(=O)(=O)CC(=O)NC1CCCn2c1nc(C(=O)NCc1ccc(F)cc1)c(O)c2=O (racemic)")
3.00
>>> reported_result("CN1CCN(S(=O)(=O)N(C)[C@H]2CCCn3c2nc(C(=O)NCc2ccc(F)cc2)c(O)c3=O)CC1")
0.78
>>> reported_result("CN(C(=O)CS(=O)(=O)N(C)C)[C@@H]1CCCn2c1nc(C(=O)NCc1ccc(F)cc1)c(O)c2=O")
1.79
>>> reported_result("CN(C)C(=O)C(=O)N(C)[C@H]1CCCCn2c1nc(C(=O)NCc1ccc(F)cc1)c(O)c2=O")
1.11
>>> reported_result("CC(c1nc(O)c(O)c(C(=O)NCc2ccc(F)cc2)n1)N(C)C (stereo not drawn)")
2.70

Could you now look at the following compound, please?
Using the record for CN(C(=O)CS(C)(=O)=O)C1CCCn2c1nc(C(=O)NCc1ccc(F)cc1)c(O)c2=O (racemic) , report its log10 of IC95.
1.34

* * *

experiment: Inhibition of recombinant HIV1 integrase strand transfer activity
pIC50: −log10 of the molar value.
Output yes for pIC50 not less than 8; output no otherwise.

>>> class_name("CN(C)C(=O)C(=O)N(C)C1CCn2c1nc(C(=O)NCc1ccc(F)cc1)c(O)c2=O (racemic)")
"no"

Kindly review the next compound as well.
For this compound, is measured pIC50 8 or higher? `CN(C)C(=O)C(=O)N(C)[C@@H]1CCCn2c1nc(C(=O)NCc1ccc(F)cc1)c(O)c2=O`
no

* * *

system: Human immunodeficiency virus 1; experiment: Antiviral activity against HIV1 in human MT4 cell assessed as inhibition of virus spread in presence of 50% normal human serum; type: functional; settings: Human immunodeficiency virus 1, MT4; read-out: CIC95
We begin with a simple list: items and their reported IC95.

>>> reported_result("CN(C)S(=O)(=O)N(C)C1CCn2c1nc(C(=O)NCc1ccc(F)cc1)c(O)c2=O (racemic)")
"> 1000 nM"

Please give the measured IC95 for this compound: CN(C)C(=O)C(=O)N(C)C1CCn2c1nc(C(=O)NCc1ccc(F)cc1)c(O)c2=O (racemic)
> 1000 nM

What does the data say about its IC95? Entry: CC(=O)N(C)C1CCn2c1nc(C(=O)NCc1ccc(F)cc1)c(O)c2=O (racemic)
> 1000 nM

Item under review: `O=C(NCc1ccc(F)cc1)c1ncnc(O)c1O` . Reported IC95?
> 10000 nM

* * *

test: Inhibition of recombinant HIV1 integrase strand transfer activity
METRIC NAME: pIC50
API: returns pIC50 as number; meaning -log10 of concentration in mol/L.

Example entries and their recorded answers appear below.
>>> reported_result("CN(C)C(=O)C(=O)N(C)C1CCCn2c1nc(C(=O)NCc1ccc(F)cc1)c(O)c2=O (racemic)")
8.15
>>> reported_result("O=C(NCc1ccc(F)cc1)c1nc2n(c(=O)c1O)CCC2")
8.10
>>> reported_result("CN(C1CCCn2c1nc(C(=O)NCc1ccc(F)cc1)c(O)c2=O)S(=O)(=O)N1CCCCC1 (racemic)")
8.05
>>> reported_result("CN1CCN(S(=O)(=O)N(C)[C@@H]2CCCn3c2nc(C(=O)NCc2ccc(F)cc2)c(O)c3=O)CC1")
8.00
>>> reported_result("CN(C)C(=O)C(=O)N(C)C1CCCCn2c1nc(C(=O)NCc1ccc(F)cc1)c(O)c2=O (racemic)")
7.89

Note: attention shifts to another entry.
What value of pIC50 has been reported for the following compound? CC(=O)N(C)C1CCCn2c1nc(C(=O)NCc1ccc(F)cc1)c(O)c2=O (racemic)
8.22
